FYI, the data here is from patent US9181259B2.

- testSummary: Hepatic intrinsic clearance following incubation in human liver microsomes
- Format: in vitro ADME
- conditionDetails: NADPH regenerating system, 0-30 min, 37 °C
For each record, write down the corresponding Human in vitro Clint (mL/min/g liver).
Your answer is read as mL/min/g liver, so omit the unit and give the number.

**Query** Output Human in vitro Clint (mL/min/g liver) of Cc1ccccc1[C@H]1[C@@H]2CC(CCO)(CCO)C(=O)N2CCN1C(=O)N(C)[C@H](C)c1cc(C(F)F)cc(C(F)(F)F)c1 [Compound 97]
**Result** 14

**Query** Output Human in vitro Clint (mL/min/g liver) of Cc1ccccc1C1C2CC(C)(C(=O)N(C)C)C(=O)N2CCN1C(=O)N(C)Cc1cc(C(F)(F)F)cc(C(F)(F)F)c1 (single isomer, unassigned)
**Result** 1.0

**Query** Output Human in vitro Clint (mL/min/g liver) of Cc1ccccc1C1C2CC(CCO)(CCO)C(=O)N2CCN1C(=O)N(C)Cc1cc(C(F)(F)F)cc(C(F)(F)F)c1 (single isomer, unassigned) [Compound 43]
**Result** 3.7

**Query** Output Human in vitro Clint (mL/min/g liver) of Cc1ccccc1[C@H]1[C@@H]2CC(CCO)(CCO)C(=O)N2CCN1C(=O)N(C)Cc1cc(F)cc(C(F)(F)F)c1
**Result** 12

**Query** Output Human in vitro Clint (mL/min/g liver) of Cc1cc([C@@H](C)N(C)C(=O)N2CCN3C(=O)C(CO)(CO)C[C@H]3[C@@H]2c2ccccc2C)cc(C(F)(F)F)c1
**Result** 4.8

**Query** Output Human in vitro Clint (mL/min/g liver) of COc1cc(CN(C)C(=O)N2CCN3C(=O)C(CCO)(CCO)C[C@H]3[C@@H]2c2ccccc2C)cc(C(F)(F)F)c1
**Result** 4.6

**Query** Output Human in vitro Clint (mL/min/g liver) of Cc1ccccc1[C@H]1[C@@H]2CC(CCO)(CCO)C(=O)N2CCN1C(=O)N(C)[C@H](C)c1cc(Cl)cc(C(F)(F)F)c1
**Result** 15

**Query** Output Human in vitro Clint (mL/min/g liver) of Cc1cc(CN(C)C(=O)N2CCN3C(=O)C(CCO)(CCO)C[C@H]3[C@@H]2c2ccccc2C)cc(C(F)(F)F)c1
**Result** 15

**Query** Output Human in vitro Clint (mL/min/g liver) of Cc1ccccc1C1C2CC3(CCN(C)CC3)C(=O)N2CCN1C(=O)N(C)Cc1cc(C(F)(F)F)cc(C(F)(F)F)c1 (racemic) [Compound 45]
**Result** 1.9

**Query** Output Human in vitro Clint (mL/min/g liver) of Cc1ccccc1C1C2CCC(=O)N2CCN1C(=O)N(C)Cc1cc(F)cc(C(F)(F)F)c1 (single isomer, unassigned)
**Result** 9.5

---

- testedSystem: NK1 receptor (Homo sapiens, UniProt P25103)
- Construct: Measurement of NK1 Receptor Mediated Intracellular [Ca^2+]; Mobilization in U251 MG Cells Using FLIPR; endogenous in cells; host or cells: U251 MG cells
- Sequence (P25103 whole entry): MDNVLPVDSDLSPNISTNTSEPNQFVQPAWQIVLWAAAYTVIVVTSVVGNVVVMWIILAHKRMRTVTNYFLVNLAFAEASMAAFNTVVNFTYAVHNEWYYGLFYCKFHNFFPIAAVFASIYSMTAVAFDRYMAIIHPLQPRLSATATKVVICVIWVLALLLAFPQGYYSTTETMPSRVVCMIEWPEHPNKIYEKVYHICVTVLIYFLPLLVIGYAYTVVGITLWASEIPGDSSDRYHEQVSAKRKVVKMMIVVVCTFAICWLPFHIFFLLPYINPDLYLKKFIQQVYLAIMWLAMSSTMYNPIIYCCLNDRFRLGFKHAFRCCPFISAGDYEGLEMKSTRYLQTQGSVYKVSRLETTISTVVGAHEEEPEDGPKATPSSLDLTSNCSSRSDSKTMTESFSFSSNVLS
- testSummary: NK1 receptor mediated intracellular [Ca2+] mobilization in U251 MG cells using FLIPR
- Type: cell-based
- conditionDetails: antagonist potency against Substance P (EC80), normalized to 100 nM Aprepitant, read-out: U251MG (FLIPR pIC50) (converted)
Counter-ions that a name gives are not always drawn.
quantity: IC50 (nM)
Your answer is read as nM, so omit the unit and give the number.

**Query** Output IC50 of Cc1ccccc1[C@H]1[C@@H]2CC3(CCN(C)CC3)C(=O)N2CCN1C(=O)N(C)[C@H](C)c1cc(C(F)(F)F)cc(C(F)(F)F)c1 [Compound 105, formic acid salt]
**Result** 0.24

**Query** Output IC50 of COc1cc(CN(C)C(=O)N2CCN3C(=O)C(CCO)(CCO)C[C@H]3[C@@H]2c2ccccc2C)cc(C(F)(F)F)c1 [Compound 78]
**Result** 0.112

**Query** Output IC50 of Cc1ccccc1C1C2CCC(=O)N2CCCN1C(=O)N(C)Cc1cc(C(F)(F)F)cc(C(F)(F)F)c1 (mixture of isomers) [Compound 7]
**Result** 1.07

---

For each record, write down the corresponding IC50.
- testedSystem: NK1 receptor (Homo sapiens, UniProt P25103)
- Construct: Measurement of NK1 Receptor Mediated Intracellular [Ca^2+]; Mobilization in U251 MG Cells Using FLIPR; endogenous in cells; host or cells: U251 MG cells
- testSummary: NK1 receptor mediated intracellular [Ca2+] mobilization in U251 MG cells using FLIPR
- Type: cell-based
- conditionDetails: antagonist potency against Substance P (EC80), normalized to 100 nM Aprepitant, read-out: U251MG (FLIPR pIC50) (converted)
Where a name gives a salt, the structure may show the parent alone.
Your answer is read as nM, so omit the unit and give the number.

**Query** Output IC50 of Cc1ccccc1[C@H]1[C@@H]2CC(CCO)(CCO)C(=O)N2CCN1C(=O)N(C)C(CCO)c1cc(C(F)(F)F)cc(C(F)(F)F)c1 (single isomer, unassigned) [Compound 81]
**Result** 0.12

**Query** Output IC50 of Cc1ccccc1C1C2CC(CN3CCOCC3)C(=O)N2CCN1C(=O)N(C)Cc1cc(C(F)(F)F)cc(C(F)(F)F)c1 (single isomer, unassigned) [Compound 50]
**Result** 0.224

**Query** Output IC50 of Cc1ccccc1C1C2CCC(=O)N2CCN1C(=O)N(C)Cc1cc(C(F)(F)F)cc(C(F)(F)F)c1 (single isomer, unassigned) [Compound 18]
**Result** 0.603

**Query** Output IC50 of Cc1ccccc1C1C2CC(CN3CCOCC3)C(=O)N2CCN1C(=O)N(C)[C@H](C)c1cc(C(F)(F)F)cc(C(F)(F)F)c1 (single isomer, unassigned) [Compound 73]
**Result** 0.107

**Query** Output IC50 of Cc1ccccc1[C@H]1[C@@H]2CC(CO)(CO)C(=O)N2CCN1C(=O)N(C)[C@H](C)c1cc(Cl)cc(C(F)(F)F)c1 [Compound 108]
**Result** 0.0316

**Query** Output IC50 of Cc1ccccc1C1C2CC(CO)C(=O)N2CCN1C(=O)N(C)[C@H](C)c1cc(C(F)(F)F)cc(C(F)(F)F)c1 (single isomer, unassigned) [Compound 57]
**Result** 1.51

**Query** Output IC50 of Cc1ccccc1[C@H]1[C@@H]2CC(CCO)(CCO)C(=O)N2CCN1C(=O)N(C)[C@H](CO)c1cc(C(F)(F)F)cc(C(F)(F)F)c1 [Compound 86]
**Result** 0.129

**Query** Output IC50 of Cc1ccccc1C1C2CCCN2CCN1C(=O)N(C)[C@H](C)c1cc(C(F)(F)F)cc(C(F)(F)F)c1 (single isomer, unassigned) [Compound 64]
**Result** 42.7

**Query** Output IC50 of Cc1ccccc1C1C2CC(CO)CN2CCN1C(=O)N(C)[C@H](C)c1cc(C(F)(F)F)cc(C(F)(F)F)c1 (single isomer, unassigned) [Compound 70]
**Result** 66.1

**Query** Output IC50 of Cc1ccccc1C1C2CC(CN3CCOCC3)C(=O)N2CCN1C(=O)N(C)Cc1cc(C(F)(F)F)cc(C(F)(F)F)c1 (single isomer, unassigned) [Compound 41]
**Result** 0.224

**Query** Output IC50 of Cc1ccccc1[C@H]1[C@@H]2CC3(CCNCC3)C(=O)N2CCN1C(=O)N(C)[C@H](C)c1cc(C(F)(F)F)cc(C(F)(F)F)c1 [Compound 106, formic acid salt]
**Result** 0.115

---

For each record, write down the corresponding Human in vitro Clint (mL/min/g liver).
- testSummary: Hepatic intrinsic clearance following incubation in human liver microsomes
- Assay type: in vitro ADME
- conditionDetails: NADPH regenerating system, 0-30 min, 37 °C
- Experimental: Hepatic Extraction Ratio from Hepatic Intrinsic Clearance Following Incubation in Human Liver Microsomes The general procedure consists of an automated incubation system and LC-MS/MS analysis with human liver microsomes. […] The integrated peak areas for test compounds at the selected time points are divided by the respective peak areas of the IS and the percent of parent remaining is calculated by normalizing the peak area ratio of parent to IS at 0 min. […]
Structures can show the parent of a compound that is named as a salt.
Your answer is read as mL/min/g liver, so omit the unit and give the number.

**Query** Output Human in vitro Clint (mL/min/g liver) of Cc1ccccc1[C@H]1[C@@H]2CC(CCO)(CCO)C(=O)N2CCN1C(=O)N(C)[C@@H](C)c1cc(F)cc(C(F)(F)F)c1
**Result** 11

**Query** Output Human in vitro Clint (mL/min/g liver) of Cc1ccccc1[C@H]1[C@@H]2CC3(CCN(C)CC3)C(=O)N2CCN1C(=O)N(C)[C@H](C)c1cc(C(F)(F)F)cc(C(F)(F)F)c1 [Compound 105, formic acid salt]
**Result** 1.2

**Query** Output Human in vitro Clint (mL/min/g liver) of Cc1ccccc1[C@H]1[C@@H]2CC(CCO)(CCO)C(=O)N2CCN1C(=O)N(C)[C@H](CO)c1cccc(C(F)(F)F)c1
**Result** 4.8
